Biological target: human CYP2C9 (Homo sapiens, UniProt P11712)
Sequence (P11712 whole entry): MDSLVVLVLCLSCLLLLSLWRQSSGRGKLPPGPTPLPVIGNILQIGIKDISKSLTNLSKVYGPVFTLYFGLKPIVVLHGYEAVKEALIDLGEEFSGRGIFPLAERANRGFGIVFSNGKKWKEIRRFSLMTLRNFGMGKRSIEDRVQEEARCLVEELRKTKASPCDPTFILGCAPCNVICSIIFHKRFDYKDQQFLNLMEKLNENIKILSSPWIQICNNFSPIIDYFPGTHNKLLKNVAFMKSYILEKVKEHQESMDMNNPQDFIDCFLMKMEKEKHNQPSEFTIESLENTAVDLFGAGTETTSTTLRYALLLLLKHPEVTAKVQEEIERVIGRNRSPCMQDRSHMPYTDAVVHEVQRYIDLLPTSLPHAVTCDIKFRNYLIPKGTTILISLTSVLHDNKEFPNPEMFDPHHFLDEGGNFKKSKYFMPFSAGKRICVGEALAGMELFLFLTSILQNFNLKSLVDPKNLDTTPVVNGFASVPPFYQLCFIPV
Where a name gives a salt, the structure may show the parent alone.
property_label: CYP2C9 AC50 (half-maximal activity concentration)

- molecule: "CC(C)N1C(=O)c2ccccc2C1=O [N-Isopropylphthalimide]"
  endpoint_value: "Inconclusive inhibitor"
- molecule: "CN1CCC(=C2c3ccccc3Sc3ccccc32)CC1 [Pimethixene maleate]"
  endpoint_value: "Inactive"
- molecule: "Brc1nc2ccccc2s1"
  endpoint_value: "Inactive"
- molecule: "O=C(CCN1CCC(c2ccccc2)C1)c1ccc2c(c1)OCCO2 (centres unmarked)"
  endpoint_value: "Inconclusive inhibitor"

Form field, CYP2C9 AC50 (half-maximal activity concentration) with human CYP2C9 (Homo sapiens, UniProt P11712), item CN1CCC(Nc2ncc3ncnc(Nc4ccc(F)c(Cl)c4)c3n2)CC1.Cl.Cl [Falnidamol dihydrochloride] : Inactive
